Test system: MS2 coat protein
Assay: apparent KD of MS2 coat protein; designed switch direction (-1 OFF switch, 1 ON switch): -1; higher = weaker reporter binding
Details: input ligand: none
Mark 1.0 for reported apparent KD of MS2 coat protein of 60 nM or greater; mark 0.0 for anything smaller.

RESIDUE CODES	DISCRETE LABEL
UAUUAGUAAGGAUAUGCGACGUAGGACGAAAGUCCUACGUCGCAGAAGGUACAUGAGGAUCACCCAUGUCUAUU [Mod of Fisker 11 - Jieux - Exclusion 4] (Eterna round: R97, puzzle: Exclusion 4)	0.0
AGCGGGUUAGGAUAUACCUGGGUAUGAAAAGCCUAACCUCGACAUGAGGAUCACCCAUGUAGAAGGAGCUCGGC [Eternabot (Original) Solution 3] (Eterna round: R97, puzzle: Exclusion 2)	0.0
CAGUACUGAGGAUAUACAUGAGGAUCACCCAUGUGUUCCAGCUAGGAAACUAGCAAAAGUAGAAGGCAGUACUG [Ex3: 828] (Eterna round: R96, puzzle: Exclusion 3)	0.0
UUGGUGUCAGGAUAUGCUUAAUGUGUUUUAUUAUAAUAUAUACAUGAGGAUCACCCAUGUAGAAGGGACAUUGU [LRO-Excl2-09-Fireball XL5] (Eterna round: R97, puzzle: Exclusion 2)	0.0
CCCAUGUUAGGAUAUAUGGAAGGGCGGACGGGCGCCCUAAGGUAGAAGGGACAUGAGGAUCACCCAUGUAAUAA [Diquar] (Eterna round: R97, puzzle: Exclusion 4)	1.0
UAUUUAGCAAGCAGAUCCUACAUGAGGAUCACCCAUGUGCUCUGAAAUAACGCAGAAUUACUGCGAGCUCGUCUUAU [Winner reversed engineered 27] (Eterna round: R97, puzzle: Sensor, turn-off variant 1)	1.0
CUCUUGGCAGGAUAUGCUCUCUUAGACAUGAGGAUCACCCAUGUGUUCAUUCUUUCUUUUGCAGAAGGGCCUUAAC [JR_E5_Sub046] (Eterna round: R96, puzzle: Exclusion 5)	1.0
UCUUUACAUGAGGAUCACCCAUGUGAGGAUAUGGUUUCGCUGGCCGUAGCCAGUGGAACCAGAAGGCGCGUGAU [Mat - Exclusion 1 - JL Mod - D25] (Eterna round: R97, puzzle: Exclusion 1)	1.0

----------
Test system: K4 kissing-loop RNA reporter
Assay: apparent KD of K4 kissing-loop reporter; higher = weaker reporter binding
Conditions: Eterna round: R107; input ligand: arginine 13.2 mM
MEASUREMENT NAME: apparent KD of K4 kissing-loop reporter

RESIDUE CODES	MEASUREMENT NAME	RESULT
UGAUUUAACUGAAGGAGCGGCAAUUGAUAAGUAAAUAUAGUGAUGUUAUAUAAGAUAGAGAGCCAGGUAGGUCGCAGAGGUAGGA [ExArgB.K]	apparent KD of K4 kissing-loop reporter	139 nM
AACAGCAAUGCGGCCGCCACUUCGAGGUCAGUGAUGUUGACGGGAUUAAAUAAAGAUCCCAAGAGGAGGACCGGGCAGUGCUGUU [whbob_SS_Tryp_B_t26]	apparent KD of K4 kissing-loop reporter	195 nM
AAUAAGCGCGGAAGGAGCGCCGCCAGUGAUGUUGGGAGUUAGAUACCAGUGAUGUUGGGCCGGCAGGUAGGUCGCCGCAAAGCUU [Exclusion Arginine B Gf 14]	apparent KD of K4 kissing-loop reporter	86.5 nM
UGUACCGAGACAGGAUAUGUCGUCGAAAGACGAAAUGGAGUGAUGUUCCUUAAACUGCGAAAGCAGACAGAAGGGUCUUGGUACU [FmnBS 29 A10+U76]	apparent KD of K4 kissing-loop reporter	172 nM
AUGCGGUGGAGGCUACCGCUAUUCUGAGAAGGAGCGCAGAUGACUGCAGGUAGGUCGCUUAGAGCUUGCAGUGAUGUUGCAAGUU [Islatimaed]	apparent KD of K4 kissing-loop reporter	168 nM

----------
Tested on: K4 kissing-loop RNA reporter
Assay: apparent KD of K4 kissing-loop reporter; higher = weaker reporter binding
Settings: Eterna round: R107; input ligand: arginine 13.2 mM

RESIDUE CODES	apparent KD of K4 kissing-loop reporter [µM]
UCGGCAGUGAACGAUACCAGCGUCACGUGGCUGGUGGUCACAUGAGUGAUGUUCAUGUAACGCCCUUGGCAGCGUGCGCGUACCG [KL-XTheo-B11]	0.0981
CCCAAAAUAUGCAGUGAUGUUGCAACCGAUACCAGUAUCGAAAGAUACCCUUGGCAGCGGAAAACCGCUACGUAAUUUAAAAGGG [Ex Theophylline A K4 17]	0.318
GUUACGCAUGGAAGGAGCGCAGGCUCAACAAAUAGCUCAGUGAUGUUGAGCAUAUUAAAACUGCAGGUAGGUCGCCAUGUGUAAC [Ex Arginine B K4 23]	0.547

----------
System: K4 kissing-loop RNA reporter
Assay: apparent KD of K4 kissing-loop reporter; higher = weaker reporter binding
Conditions: Eterna round: R107; input ligand: none
Below, each entry is listed alongside its reported apparent KD of K4 kissing-loop reporter.
MEASUREMENT NAME: apparent KD of K4 kissing-loop reporter (nM)

RESIDUE CODES	MEASUREMENT NAME	NUMERIC RESULT
UCCUUAUCGCGGUCAUAAAGCCUAUAAAACAAGGAUAUCUCAUCAGAGAGAAGGUGUGAGUGAUGUUCAAAGGCCACCACGGGUU [theeternabot_sameState_KL_FMN_A_47]	apparent KD of K4 kissing-loop reporter	840
UGAUACCAGACGGCCGCCACUCCCGUAAGUCAAAGACUUACGAAGAGAGUUUUCCAGUGAUGUUGGAGGACCGGGUCUGGUAUCU [FiskerMod 15 - Jieux - Exclusion - Tryptophan B]	apparent KD of K4 kissing-loop reporter	175
GGUGUUGUUUGUGCCGUCUUCCUCGUUCCUCGAGGACCGGUACGGCCGCCACUCGAGUGAUGUUUGGGUAGCGAUCCCUGUUAGU [Bdazzled - #10 Exc. Tryptophan A]	apparent KD of K4 kissing-loop reporter	647

----------
Tested on: K4 kissing-loop RNA reporter;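 note: bound reporter read as fluorescence of individual clusters on recovered sequencing chips by microscopy, with normalized cluster intensities fitted with a binding model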
Assay: apparent KD of K4 kissing-loop reporter; higher = weaker reporter binding
Conditions: Eterna round: R107; input ligand: FMN 200 uM
Quick reference: apparent KD of K4 kissing-loop reporter of the listed items.
MEASUREMENT NAME: apparent KD of K4 kissing-loop reporter (µM)

RESIDUE CODES	MEASUREMENT NAME	NUMERIC RESULT
GGGAACUCUUACGAUACCAGCCGGAGUGAUGUUCCGUGCUUGGACGUAGUAACCCGCACCGGCCCUUGGCAGCGUGGAUCUUGUG [Esgeonin]	apparent KD of K4 kissing-loop reporter	0.0806
GGAAGGAAGGGAAGGAGCGCGCAGGCAGUGAUGUUGCCAAACAAAACAAACAAAACAAAAGCGCAGGUAGGUCGCCCGAAGGACG	apparent KD of K4 kissing-loop reporter	0.0678
GGAUCGCAUGGCGAAAAGCCAUGCGAUCCACGAGGACCGGUACGGCCGCCACUCGCCGGAGUGAUGUUCCGCUACAGAUCUUAAA	apparent KD of K4 kissing-loop reporter	0.187
AAGGUCACUACUACAGUGAUGUUGUAGGAGCAGGAUAUGCAGAAAUGCAGAAGGGCUCGCUCCAGGUGACCGAAUGAAACAUUCA [Omei KL FMN A SS A v3]	apparent KD of K4 kissing-loop reporter	0.333
GGUCCGGGCUCGGCCGCCACUCCCUCGUACCGCAAGGUAUGAUACCGAGUGAUGUUCGGUUGGAGGAGGACCGGGAGCCCGGACC [#2 Exclusion - Tryptophan B Attempt #9 (HarryS)]	apparent KD of K4 kissing-loop reporter	0.112
GCGUUAGUACUCGAUACCAGACCUCUAGUAGUGAUGUUGCUUGGCGAAGGCCUCGAACGAGUCCCUUGGCAGCGAGGAAAGAGGA [theeternabot_sameState_KL_Theo_B_4]	apparent KD of K4 kissing-loop reporter	0.506
UGACUGGACUGAAGGAGCGAGGACGGUCAUAGACCGAAAUCAGUGAUGUUGAAAGAUAAACCUCAGGUAGGUCGCAGUCUAGUCU [ArgBS 1 #SwitchBubble #StaticStem]	apparent KD of K4 kissing-loop reporter	1.07
GGGAGGAGUGGUGUUGAUUAAGAAGCGGAAGGAGCGCCGAAGAAGGCAGGUAGGUCGCCGAAAUAUAGUGAUGUUAUAUAAAGGG [ExArg.C]	apparent KD of K4 kissing-loop reporter	0.34
CUCGUGGGUUUGAGAGGGCUUGUGGGAAGAUAGGAUAUCUAGGGAGGGAGAAGGAUCUAUAGAAUAUAGUGAUGUUAUAUAUGGG [#05 K4 FMN A Same State]	apparent KD of K4 kissing-loop reporter	0.164
AACCGCCAGUCGGCCGCCACUCACAGCAGUGAUGUUGCUGAAAAUCUAAAAGAGUGAUGUUCUUAGAGGACCGGGACUCCAGGCG [Same State Tryptophan B GF 5]	apparent KD of K4 kissing-loop reporter	0.26
AGGUAGUCCCUUGUUGUCAUCGAAGAUGAACGAGGACCGGUACGGCCGCCACUCGGAGUGAUGUUCCGAUGGCUGCAAAAUAAAA [MatMod 23 - Jieux - Exclusion - Tryptophan A]	apparent KD of K4 kissing-loop reporter	0.108
UGAUACCAGACUGAUACCAGCCACAGAGUCAAAGACUCUGAUAAAGGAACCAGUGAUGUUGGCCCUUGGCAGCAGUCUGGUAUCU [TheoBX 24 #SwitchBubble #StaticStem]	apparent KD of K4 kissing-loop reporter	0.131
CGCAGUGAUGUUGCGAACAUAAUGCAUUCAGAGGAUAUUCGUUUGGGAAGAAGGCUGAAUCGUUUUUCGAGUGAUGUUUGAGGAA [Same State FMN A GF 18]	apparent KD of K4 kissing-loop reporter	0.106
UGUACCGAGACAGGAUAUGUCGUCGAAAGACGAAAUGGAGUGAUGUUCCUUAAACUGCGAAAGCAGACAGAAGGGUCUUGGUACU [FmnBS 29 A10+U76]	apparent KD of K4 kissing-loop reporter	0.132
AUAUAGAGUGAUGUUCAUGAGUAUUUCGAAGGAGCGCUAAAUAAGGCAGGUAGGUCGCGGAAAAUAUAUAUAUAGAUAUAUAUAU [KL-SSArg-A29]	apparent KD of K4 kissing-loop reporter	0.168
GAUGUCUAGAGAUCAUCUAGACACCUAGAUACCAGCAGAUAUAUCUGCCCUUGGCAGCUAGAACCAGUGAUGUUGGUAUAUGCUC [Theo A SS t3]	apparent KD of K4 kissing-loop reporter	0.259
